- target_entity: CYP2D6*10 (Homo sapiens, UniProt P10635, P34S/S486T)
- test_details: Soret
- Assay type: binding
- test_parameters: read-out: Ks; CYP2D6*10 nanodiscs, 1 μM CYP2D6, room temperature, N=3, ± SEM
measurement_type: pKd
Remember the convention: pKd equals -log10 of concentration in molar.

# input For CYP2D6*10 (Homo sapiens, UniProt P10635, P34S/S486T), give pKd of the listed molecule: C=C1CC/C=C(\C)CC[C@@H]2[C@@H]1CC2(C)C
# output 4.86

###

- target_entity: CYP2D6*10 (Homo sapiens, UniProt P10635, P34S/S486T)
- test_details: Soret
- Assay type: binding
# note: boundary value 7 µM maps to criterion not met; Kd below it maps to criterion met

# input Here's an entry: CCCCCc1cc(O)c2c(c1)OC(C)(C)[C@@H]1CCC(C)=C[C@@H]21 [THC, Tetrahydrocannabinol] . Is its Kd below 7 µM?
# output criterion not met

# input Here's an entry: CCCCCc1cc(O)c2c(c1)OC(C)(C)c1ccc(C)cc1-2 [CBN, cannabinol] . Is its Kd below 7 µM?
# output criterion met

# input Here's an entry: CCCCCc1cc(O)c2c(c1)OC(C)(CCC=C(C)C)C=C2 (stereo not drawn) [CBC, cannabichromene] . Is its Kd below 7 µM?
# output criterion not met

# input Here's an entry: CCCCCc1cc(O)c(C/C=C(\C)CCC=C(C)C)c(O)c1 [CBG, cannabigerol] . Is its Kd below 7 µM?
# output criterion not met

# input Here's an entry: CCCc1cc(O)c2c(c1)OC(C)(C)[C@@H]1CCC(C)=C[C@@H]21 [THCV, Δ9-Tetrahydrocannabivarin] . Is its Kd below 7 µM?
# output criterion not met

Source listed as paper PMC8455456.
